- Test system: Primary DRG cells
- TEST DETAILS: Neurite outgrowth assay (group A), paclitaxel-induced neurotoxicity
- Format: cell-based, C57BL/6 J mice
- RECORDED CONDITIONS: difference between compound 1 µM + paclitaxel 0.05 µM and paclitaxel 0.05 µM alone
ASSAY READOUT: Neurite outgrowth (%) A-B (extent of protection)
Note: unit % is implicit; provide only the numeric part.

[[record]]
compound = "O=P(O)(O)CCN1CCC(Nc2cc(N3CCSCC3)nc(NCc3cn(CCCO)nn3)n2)CC1 [Compound 140]"
scale_unit = "%"
numeric_value = 4

[[record]]
compound = "O=P(O)(O)CCN1CCC(Nc2cc(N3CCS(=O)(=O)CC3)nc(NCc3cn(CCCO)nn3)n2)CC1 [Compound 143]"
scale_unit = "%"
numeric_value = 7

[[record]]
compound = "COC(=O)c1cccc(CNCCCn2cc(CNc3nc(NC4CCN(Cc5ccccc5)CC4)cc(N4CCOCC4)n3)nn2)c1 [Compound 21]"
scale_unit = "%"
numeric_value = 3

[[record]]
compound = "COC(=O)CCN1CCC(Nc2cc(N3CCOCC3)nc(NCc3cn(CCCO)nn3)n2)CC1 [Compound 48]"
scale_unit = "%"
numeric_value = 11

[[record]]
compound = "CCn1nnnc1CNc1nc(N2CCOCC2)cc(N2CCOCC2)n1 [Compound 97]"
scale_unit = "%"
numeric_value = 5

[[record]]
compound = "COCCCn1cc(CNc2nc(NC3CCN(CCC(=O)OC)CC3)cc(N3CCOCC3)n2)nn1 [Compound 62]"
scale_unit = "%"
numeric_value = 3

[[record]]
compound = "COC(=O)CCCCC(=O)N1CCC(Nc2cc(N3CCOCC3)nc(NCc3cn(CCCOCCC(=O)OC)nn3)n2)CC1 [Compound 73]"
scale_unit = "%"
numeric_value = 3


Primary DRG cells / Neurite outgrowth (%) A-B (extent of protection) / CN1CCN(c2cc(NCc3cccnc3)nc(NCc3cn(CCCO)nn3)n2)CC1 [Compound 42] : value?
3

* * *

- Tested on: Primary DRG cells
- TEST DETAILS: Neurite outgrowth assay (group A), paclitaxel-induced neurotoxicity
- Format: cell-based, C57BL/6 J mice
- RECORDED CONDITIONS: difference between compound 1 µM + paclitaxel 0.05 µM and paclitaxel 0.05 µM alone
# maps each entry to its Neurite outgrowth (%) A-B (extent of protection)
Note: unit % is implicit; provide only the numeric part.

[[record]]
compound = "O=C(O)CCN1CCC(Nc2cc(N3CCOCC3)nc(NCc3cn(CC(=O)O)nn3)n2)CC1"
assay_target = "Primary DRG cells"
scale_unit = "%"
numeric_value = 3

[[record]]
compound = "OCC(CO)Cn1cc(CNc2nc(NC3CCN(Cc4ccccc4)CC3)cc(N3CCOCC3)n2)nn1"
assay_target = "Primary DRG cells"
scale_unit = "%"
numeric_value = 2

[[record]]
compound = "CCCCC(=O)NCCCn1cc(CNc2nc(NC3CCN(CCP(=O)(O)O)CC3)cc(N3CCOCC3)n2)nn1"
assay_target = "Primary DRG cells"
scale_unit = "%"
numeric_value = 3


Turning now to a further record.
Name the reported Neurite outgrowth (%) A-B (extent of protection) value associated with the compound NCCCn1cc(CNc2nc(NC3CCN(C(=O)CCNC(=O)C4(O)CC(O)C(O)C(O)C4)CC3)cc(N3CCOCC3)n2)nn1 (stereo not shown)
3
